Sourced from PubChem BioAssay AID1159580

experiment: chemical genetic growth profiling, strain panel (AID 1159580);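 also: tested at 20 µM; growth read once vehicle control cultures reached saturation at 30 °C; 1 = growth at the plate median or of vehicle wells; lower values mean less growth of the strain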
assay conditions: S. cerevisiae deletion strains, growth OD, locus YJR066W, strain TOR1 (second series)
The campaign covered roughly 5,500 compounds. About 2,000 (36%) were called active. Not shown: some 18% with an inconclusive outcome. Rule as the data show it: active = normalized growth mostly below about 0.91 (no sharp cut-off); inconclusive = no clear call, values can overlap the other calls; inactive = mostly above about 0.92. The list shows a part of the results.
Hello, when you answer, please use one of the following outcomes: Y for active, N for inactive

// known answers, use as guide
compound	class label
FC(F)(F)c1cc(-c2ccc(Cl)cc2)n[nH]1	N
S=C(N/N=C\c1cccs1)NC1CC2CCC1C2 (centres undefined)	N
Clc1ccc(N/N=C\c2sccc2Oc2ccccc2)cc1	Y
CCOC(=O)c1cnc2c(c(C)nn2C)c1Sc1nnc(SC)s1	Y
O=c1c(-c2ccccc2)c(O)c2cccc3c4c(n1c23)CCCC4	Y
Cn1nc(-c2ccccc2)c(O)c(N=Nc2ccccc2)c1=O	N
S=C(Nc1ccc(Cl)cc1)Nc1ccc(Cl)cc1	N
CC(C)(C)c1ccc(C(=O)NNC(=S)Nc2ccc(Cl)cc2)cc1	N

**Q:** Please let me know the test result on file for `O=c1c(-c2ccccc2)c(O)c2cccc3c4ccccc4n1c23` .
**A:** Y

**Q:** Please let me know the test result on file for CN1c2ccccc2C(C)(C)C12C=Cc1cc(O)ccc1O2 (centres undefined) .
**A:** N

**Q:** Please let me know the test result on file for `O=C(NNC(=S)Nc1ccc(Cl)cc1)c1ncc(C(F)(F)F)cc1Cl` .
**A:** N

**Q:** Please let me know the test result on file for `CSc1nnc(COc2ccc(C)c3c2CCC3)n1-c1ccccc1` .
**A:** N

**Q:** Please let me know the test result on file for `O=C(Nc1cccnc1)c1cc2c(s1)-c1ccccc1CC2` .
**A:** N

**Q:** Please let me know the test result on file for OC(CSc1ccccc1)CN1CCN(c2nc(-c3ccccc3)ns2)CC1 (centres undefined) .
**A:** N

* * *

experiment: chemical genetic growth profiling, strain panel (AID 1159580);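 also: tested at 20 µM; growth read once vehicle control cultures reached saturation at 30 °C; 1 = growth at the plate median or of vehicle wells; lower values mean less growth of the strain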
assay conditions: S. cerevisiae deletion strains, growth OD, locus YML032C, strain rad52, active compounds read low
Out of some 5,500 compounds screened, about 2,000 (36%) were called active. Another 18% or so got no clear call; they are omitted. This is one part of the list. Where a SMILES comes first, the peptide text is derived from it. Side-chain parts run from the residue outwards. [ ]: non-standard residue; d: D form. The star is where a group is joined. X1 = CCC(C)C(N)C1=NC(C(=O)*)CS1; Orn = NCCC[CH](N)C(=O)O
Collected normalized growth values appear next to each entry.
Keep it simple and answer with nothing but the number.

Solved entries:
compound	normalized growth
C1CCC(C(CC2CCCCN2)C2CCCCC2)CC1 (stereo not drawn)	0.877
Cc1ccc(N(CC2=NCCN2)c2cccc(O)c2)cc1	0.819
CCC(C)C(N)C1=NC(C(=O)NC(CC(C)C)C(=O)NC(CCC(=O)O)C(=O)NC(C(=O)NCCCCC2NC(=O)C(CC(N)=O)NC(=O)C(CC(=O)O)NC(=O)C(Cc3cnc[nH]3)NC(=O)C(Cc3ccccc3)NC(=O)C(C(C)CC)NC(=O)C(CCCN)NC2=O)C(C)CC)CS1 (stereo not drawn) (cyclo(DNK([Ile-Glu-Leu-X1])[Orn]IFH); configuration not given here)	0.967
COc1cc2c(cc1O)CCNC2C (stereo not drawn)	0.99
CC(C)CC1NC(=O)C(CCCN)NC(=O)C(C(C)C)NC(=O)C2CCCN2C(=O)C(Cc2ccccc2)NC(=O)C(CC(C)C)NC(=O)C(CCCN)NC(=O)C(C(C)C)NC(=O)C2CCCN2C(=O)C(Cc2ccccc2)NC1=O (stereo not drawn) (cyclo(FPV[Orn]LFPV[Orn]L); configuration not given here)	0.989

**Q:** Given CC[C@H]1CN2CCc3cc(OC)c(OC)cc3C2C[C@@H]1CC1NCCc2cc(OC)c(OC)cc21 (stereo partly drawn) , state its recorded normalized growth.
**A:** 1.01

**Q:** Given `Cc1cc(C(C)(C)C)cc(C)c1CC1=NCCN1` , state its recorded normalized growth.
**A:** 0.994

**Q:** Given CC(=O)CC1CCCCN1 (stereo not drawn) , state its recorded normalized growth.
**A:** 0.982
